Exercise: for every item that follows, state its recorded MFI.Max.
# TESTED ON: T1, human GPRC5D (G protein-coupled receptor class C group 5 member D), on cells (human, UniProt Q9NZD1 1-345)
# T1 construct: whole, on cells; also called hGPRC5D
# T1 sequence (Q9NZD1 whole entry): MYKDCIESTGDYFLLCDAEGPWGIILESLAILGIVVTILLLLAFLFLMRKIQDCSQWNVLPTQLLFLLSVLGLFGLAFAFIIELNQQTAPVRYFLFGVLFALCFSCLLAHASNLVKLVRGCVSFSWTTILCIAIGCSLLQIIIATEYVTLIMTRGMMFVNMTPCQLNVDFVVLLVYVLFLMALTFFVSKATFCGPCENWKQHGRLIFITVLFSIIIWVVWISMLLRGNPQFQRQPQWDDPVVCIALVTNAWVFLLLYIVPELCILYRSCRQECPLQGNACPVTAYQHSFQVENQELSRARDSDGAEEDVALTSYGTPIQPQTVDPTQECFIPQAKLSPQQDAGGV
# ASSAY METHOD TEXT: FACS on MM.1R multiple myeloma cells
One number for each entry, in MFI.

BINDER	ENDPOINT LABEL	RESULT
humanized antibody 6E97 (hz) (antibody, V domains shown) VH: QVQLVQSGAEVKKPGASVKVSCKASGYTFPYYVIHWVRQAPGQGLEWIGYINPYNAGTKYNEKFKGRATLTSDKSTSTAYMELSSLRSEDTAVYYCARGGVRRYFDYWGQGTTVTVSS VL: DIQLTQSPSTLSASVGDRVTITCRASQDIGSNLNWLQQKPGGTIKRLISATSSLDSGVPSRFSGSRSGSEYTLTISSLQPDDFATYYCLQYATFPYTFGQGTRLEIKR	MFI.Max	246

Return reported MFI.Max values for all items listed beneath this line.
1. humanized antibody 26D1 (hz) (antibody, V domains shown) VH: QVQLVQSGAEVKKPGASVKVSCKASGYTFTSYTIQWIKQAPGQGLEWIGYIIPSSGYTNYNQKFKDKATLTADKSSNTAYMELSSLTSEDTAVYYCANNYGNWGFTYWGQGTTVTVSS VL: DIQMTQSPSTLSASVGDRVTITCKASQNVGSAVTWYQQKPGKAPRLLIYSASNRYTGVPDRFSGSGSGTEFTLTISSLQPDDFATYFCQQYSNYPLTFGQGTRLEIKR
2. humanized antibody 9D7 (hz) (antibody, V domains shown) VH: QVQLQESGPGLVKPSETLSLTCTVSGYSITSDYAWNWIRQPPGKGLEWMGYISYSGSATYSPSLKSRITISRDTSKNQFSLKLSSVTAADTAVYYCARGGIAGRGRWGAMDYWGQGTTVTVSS VL: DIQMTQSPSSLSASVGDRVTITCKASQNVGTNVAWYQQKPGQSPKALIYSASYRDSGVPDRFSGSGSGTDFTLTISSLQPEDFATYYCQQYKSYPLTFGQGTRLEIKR

result:
185
150
